Molecular target: Bacterial 70S ribosome
Assay: Binding affinity to Escherichia coli ribosome assessed as inhibition of transcription-translation activity preincubated for 30 mins followed by substrate addition measured after 5 mins by luciferase assay
Kindly state IC50 for each of the entries shown.
Give bare numbers, in µM.

Examples from the recorded data:
NCCCC[C@H](N)C(=O)NC[C@@H]1CC[C@@]2(O1)[C@H](O)[C@@H](O)[C@H](N)C[C@@H]2N : 325
N[C@@H]1C[C@H](N)[C@@]2(CC[C@@H](CNC(=O)[C@@H](N)Cc3cnc[nH]3)O2)[C@H](O)[C@H]1O : 172
N[C@@H](Cc1ccc(O)cc1)C(=O)N[C@@H]1C[C@H](N)[C@@]2(CC[C@H](O)[C@H](O)CO2)[C@H](O)[C@H]1O : 450
N=C(N)NCCC[C@H](N)C(=O)NC[C@@H]1CC[C@@]2(O1)[C@H](O)[C@@H](O)[C@H](N)C[C@@H]2N : 98
NCCCC[C@H](N)C(=O)N[C@@H]1C[C@H](N)[C@@]2(C[C@H](O)[C@H](O)CO2)[C@H](O)[C@H]1O : 350

Report IC50 for every entry below.
1. NCCCC[C@H](N)CN[C@@H]1C[C@H](N)[C@@]2(C[C@H](O)[C@H](O)CO2)[C@H](O)[C@H]1O
2. NCCCC[C@H](N)CN[C@@H]1C[C@H](N)[C@@]2(CC[C@H](O)[C@H](O)CO2)[C@H](O)[C@H]1O

Result:
540
100

###

System: Escherichia coli
Test: Antibacterial activity against Escherichia coli ATCC 25922 assessed as growth inhibition after 18 hrs by geometric microdilution method
Type: functional
Settings: ATCC 25922, 18 h
Kindly state MIC for each of the entries shown.
One number for each entry, in µg/mL.

Examples from the recorded data:
NC[C@H]1O[C@H](O[C@H]2[C@H](O)[C@@H](O)[C@H](N)C[C@@H]2N)[C@H](N)[C@@H](O)[C@@H]1O : 14
NCCCC[C@H](N)CN[C@@H]1C[C@H](N)[C@@]2(CC[C@@H](O)[C@@H](O)CO2)[C@H](O)[C@H]1O : 236
N[C@@H]1C[C@H](N)[C@@]2(CC[C@@H](CNC(=O)[C@@H](N)Cc3c[nH]c4ccccc34)O2)[C@H](O)[C@H]1O : 98
NCCCC[C@H](N)CN[C@@H]1C[C@H](N)[C@@]2(CC[C@H](O)[C@H](O)CO2)[C@H](O)[C@H]1O : 236

Okay, next one:
Request: Look up MIC: "NC[C@@H]1O[C@H](O[C@H]2[C@@H](O)[C@H](O[C@@H]3[C@@H](O)[C@H](N)C[C@H](N)[C@H]3O[C@H]3O[C@H](CO)[C@@H](O)[C@H](O)[C@H]3N)O[C@@H]2CO)[C@H](N)[C@@H](O)[C@@H]1O"
Result: 4

###

Tested on: Escherichia coli
Assay: Antibacterial activity against kanamycin-resistant Escherichia coli K-12 JW 0451-2 harboring acrB747 deletion mutant assessed as growth inhibition after 18 hrs by geometric microdilution method
Type: functional
Conditions: K-12 JW 0451-2, 18 h
Kindly state MIC for each of the entries shown.
Answers are plain numbers, in µg/mL.

NC[C@H]1O[C@H](O[C@H]2[C@H](O)[C@@H](O)[C@H](N)C[C@@H]2N)[C@H](N)[C@@H](O)[C@@H]1O [NEAMINE] : 150

Report MIC for every entry below.
1. NCCCC[C@H](N)CN[C@@H]1C[C@H](N)[C@@]2(CC[C@H](O)[C@H](O)CO2)[C@H](O)[C@H]1O
2. N[C@@H]1C[C@H](N)[C@@]2(CC[C@@H](CNC(=O)[C@@H](N)Cc3c[nH]c4ccccc34)O2)[C@H](O)[C@H]1O
3. NCCCC[C@H](N)CN[C@@H]1C[C@H](N)[C@@]2(CC[C@@H](O)[C@@H](O)CO2)[C@H](O)[C@H]1O
4. N[C@H](CN[C@@H]1C[C@H](N)[C@@]2(CC[C@H](O)[C@H](O)CO2)[C@H](O)[C@H]1O)Cc1ccc(O)cc1
5. NC[C@@H]1O[C@H](O[C@H]2[C@@H](O)[C@H](O[C@@H]3[C@@H](O)[C@H](N)C[C@H](N)[C@H]3O[C@H]3O[C@H](CO)[C@@H](O)[C@H](O)[C@H]3N)O[C@@H]2CO)[C@H](N)[C@@H](O)[C@@H]1O [PAROMOMYCIN]

Result:
118
32.5
118
129
113

###

Assay: Binding affinity to 2AP-labelled duplex RNA (unknown origin) by fluorescence spectrophotometric analysis
pEC50: −log10 of the molar value.
Categories are assigned from the measured pEC50 using these intervals: lo = under 5, mid = from 5 up to 6, hi = 6 and over

NCC[C@H](O)C(=O)N[C@@H]1C[C@H](N)[C@@]2(CC[C@H](O)[C@H](O)CO2)[C@H](O)[C@H]1O : mid
N[C@@H]1C[C@H](N)[C@@]2(C[C@H](O)[C@H](O)CO2)[C@H](O)[C@H]1O : mid
NCCCC[C@H](N)CN[C@@H]1C[C@H](N)[C@@]2(CC[C@H](O)[C@H](O)CO2)[C@H](O)[C@H]1O : hi

Request: The entry to classify is "N[C@@H]1C[C@H](N)[C@@]2(CC[C@H](O)[C@H](O)CO2)[C@H](O)[C@H]1O" ; which class holds it?
Result: lo

Request: The entry to classify is "NCCCC[C@H](N)CN[C@@H]1C[C@H](N)[C@@]2(C[C@H](O)[C@H](O)CO2)[C@H](O)[C@H]1O" ; which class holds it?
Result: hi

Request: The entry to classify is "N[C@@H]1C[C@H](N)[C@@]2(CC[C@@H](O)[C@@H](O)CO2)[C@H](O)[C@H]1O" ; which class holds it?
Result: lo

###

Biological target: Bacterial 70S ribosome
Experiment: Binding affinity to Escherichia coli ribosome assessed as inhibition of transcription-translation activity preincubated for 30 mins followed by substrate addition measured after 5 mins by luciferase assay
Kindly state pIC50 for each of the entries shown.
One number for each entry, as −log10 of the molar value.

N[C@@H]1C[C@H](N)[C@@]2(CC[C@@H](CNC(=O)[C@@H](N)Cc3c[nH]c4ccccc34)O2)[C@H](O)[C@H]1O : 3.83

Request: Look up pIC50: "N[C@@H]1C[C@H](N)[C@@]2(CC[C@@H](CNC(=O)[C@@H]3CCCN3)O2)[C@H](O)[C@H]1O"
Result: 3.81

###

Experiment: Binding affinity to 2AP-labelled duplex RNA (unknown origin) by fluorescence spectrophotometric analysis
recordedMetric: EC50 (nM)
Numbers only, in nM.

Examples from the recorded data:
NCCCC[C@H](N)CN[C@@H]1C[C@H](N)[C@@]2(CC[C@@H](O)[C@@H](O)CO2)[C@H](O)[C@H]1O : 650
NCCCC[C@H](N)C(=O)NC[C@@H]1CC[C@@]2(O1)[C@H](O)[C@@H](O)[C@H](N)C[C@@H]2N : 1400

Okay, next one:
Request: Look up EC50: "NCC[C@H](O)C(=O)N[C@@H]1C[C@H](N)[C@@]2(CC[C@@H](O)[C@@H](O)CO2)[C@H](O)[C@H]1O"
Result: 390

###

Assay: Binding affinity to 2AP-labelled duplex RNA (unknown origin) by fluorescence spectrophotometric analysis
Kindly state EC50 for each of the entries shown.
Numbers only, in nM.

Examples from the recorded data:
NCCCC[C@H](N)C(=O)N[C@@H]1C[C@H](N)[C@@]2(C[C@H](O)[C@H](O)CO2)[C@H](O)[C@H]1O : 890
NC[C@H]1O[C@H](O[C@H]2[C@H](O)[C@@H](O)[C@H](N)C[C@@H]2N)[C@H](N)[C@@H](O)[C@@H]1O : 9500
N=C(N)NCCC[C@H](N)C(=O)NC[C@@H]1CC[C@@]2(O1)[C@H](O)[C@@H](O)[C@H](N)C[C@@H]2N : 1500
N[C@@H]1C[C@H](N)[C@@]2(CC[C@@H](CNC(=O)[C@@H]3CCCN3)O2)[C@H](O)[C@H]1O : 680

Okay, next one:
Request: Look up EC50: "NCCCC[C@H](N)C(=O)N[C@@H]1C[C@H](N)[C@@]2(CC[C@@H](O)[C@@H](O)CO2)[C@H](O)[C@H]1O"
Result: 1200
